Assay: APR_HepG2_NuclearSize_72hr: Apredica 72-hour HepG2 Assay for Nuclear Size (AID 2282925)
Details: high-content imaging, actives raise or lower the signal
Description: APR_HepG2_72hr is a cell-based, multiplexed-readout assay that uses HepG2, a human liver cell line, with measurements taken at 72 hours after chemical dosing in a 384-well plate.APR_HepG2_NuclearSize_72hr is one of 10 assay component(s) measured or calculated from the APR_HepG2_72hr assay. […] This assay endpoint, APR_HepG2_NuclearSize_72hr, was analyzed with bidirectional fitting relative to DMSO as the negative control and baseline of activity. […]
Calls of active or inactive are those of the source. Rule for the calls: active = hit-call score of the fitted dose curve at least 0.9, where 1 is the maximum; inactive = score below 0.9.
MEASUREMENT TYPE: AC50

COMPOUND	OBSERVED VALUE
CC(C)CCO	inactive
CCCCCCCCO	inactive
CC(C)=CCCC(C)=CC=O	inactive
CCc1cc(SCc2sc(-c3ccc(C(F)(F)F)cc3)nc2CN2CCN(c3ccc(OC)cc3)CC2)ccc1OCC(=O)O	inactive
CCCCCCc1ccc(O)cc1O	inactive
On1ccccc1=S	3.98 µM (active)
CC/C(=C\C(=N/O)C(N)=O)C(C)[N+](=O)[O-] (stereo unspecified)	inactive
CCOC(=O)c1ccc(C2CCC(NC[C@H](O)COc3ccc(O)c(NS(C)(=O)=O)c3)CC2)cc1 (stereo partly specified)	22.7 µM (active)
O=C(O)c1cc(N=Nc2ccc(S(=O)(=O)Nc3ccccn3)cc2)ccc1O	inactive
CC(=O)OCCC(C)C	inactive
O=C1CCCCCN1	inactive
